Biological target: T1, human IL-12Rβ2 expressed on cells (human, UniProt Q99665 24-862)
T1 construct: the cell lines are described by plasmid or cDNA number only; also called hIL-12RB2; HEK293T transiently transfected with human IL-12Rβ2
T1 sequence: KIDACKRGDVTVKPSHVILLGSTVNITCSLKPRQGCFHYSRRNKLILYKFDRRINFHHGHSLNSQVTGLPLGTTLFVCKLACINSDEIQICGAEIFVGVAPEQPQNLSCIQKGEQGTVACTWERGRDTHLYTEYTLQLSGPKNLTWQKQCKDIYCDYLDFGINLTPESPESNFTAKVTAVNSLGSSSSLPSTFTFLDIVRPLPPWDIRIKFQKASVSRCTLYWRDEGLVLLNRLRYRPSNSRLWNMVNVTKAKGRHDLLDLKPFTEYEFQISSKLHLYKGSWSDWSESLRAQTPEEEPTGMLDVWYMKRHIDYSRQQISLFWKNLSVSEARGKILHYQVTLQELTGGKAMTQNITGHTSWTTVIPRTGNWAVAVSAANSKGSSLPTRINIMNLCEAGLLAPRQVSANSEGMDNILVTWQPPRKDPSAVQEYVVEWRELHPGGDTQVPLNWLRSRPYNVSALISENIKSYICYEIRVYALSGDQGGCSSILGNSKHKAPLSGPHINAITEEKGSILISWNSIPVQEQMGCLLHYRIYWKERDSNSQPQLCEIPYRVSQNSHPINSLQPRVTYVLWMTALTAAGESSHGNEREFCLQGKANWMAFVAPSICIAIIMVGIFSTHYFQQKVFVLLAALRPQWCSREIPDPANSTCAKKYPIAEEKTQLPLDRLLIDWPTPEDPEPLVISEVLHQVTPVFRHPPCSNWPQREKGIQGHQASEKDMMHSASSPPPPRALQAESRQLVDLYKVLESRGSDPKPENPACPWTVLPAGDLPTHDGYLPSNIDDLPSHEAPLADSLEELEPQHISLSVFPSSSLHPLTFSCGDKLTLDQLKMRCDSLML
Test: flow cytometry, periplasmic extract VHH-HA on HEK293T cells transiently expressing human IL-12Rβ2
Form field: % cells bound (one value per entry).
Supply the numeric figure in %, leaving out any unit text.

anti-IL-12Rβ2 VHH clone 3CRHS54 (clone ID 20422) (VHH, Tested as periplasmic extract (P.E.) from the pMECS vector; not shown: C-terminal HA tag) VHH: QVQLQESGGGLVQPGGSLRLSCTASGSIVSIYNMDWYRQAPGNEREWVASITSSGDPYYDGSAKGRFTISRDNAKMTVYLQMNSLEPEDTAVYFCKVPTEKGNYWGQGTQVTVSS
41.5

Continue with the next binder.
input: Report % cells bound for anti-IL-12Rβ2 VHH clone 3CRH5 (clone ID 20373) (VHH, Tested as periplasmic extract; also called 3CRHS; not shown: C-terminal HA tag) VHH: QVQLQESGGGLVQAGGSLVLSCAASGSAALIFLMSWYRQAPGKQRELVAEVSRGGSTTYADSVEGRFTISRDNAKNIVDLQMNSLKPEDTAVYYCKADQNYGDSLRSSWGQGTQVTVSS please.
output: 39.5
